MEASURED_ON: 5-hydroxytryptamine receptor 1A (Rattus norvegicus, UniProt P19327)
Sequence (P19327 whole entry): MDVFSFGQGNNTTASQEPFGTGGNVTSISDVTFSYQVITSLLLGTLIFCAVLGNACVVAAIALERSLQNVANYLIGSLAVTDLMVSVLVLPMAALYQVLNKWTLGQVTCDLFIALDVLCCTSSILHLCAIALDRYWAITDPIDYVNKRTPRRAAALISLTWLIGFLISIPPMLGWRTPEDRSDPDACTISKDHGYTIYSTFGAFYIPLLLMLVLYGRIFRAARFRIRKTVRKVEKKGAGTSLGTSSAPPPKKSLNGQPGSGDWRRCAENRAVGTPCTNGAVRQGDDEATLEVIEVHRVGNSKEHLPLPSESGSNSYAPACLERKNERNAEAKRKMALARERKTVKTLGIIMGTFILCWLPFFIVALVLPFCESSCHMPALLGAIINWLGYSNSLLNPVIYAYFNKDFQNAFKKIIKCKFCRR
Rule: Ki below 20 nM gives Criterion met, anything at or above gives Criterion not met.

- MOLECULE: "COc1cccc2c1CCCC2CCCNCCNc1ccccc1 (configuration not stated)"
  MEASURED_ON: "5-hydroxytryptamine receptor 1A (Rattus norvegicus, UniProt P19327)"
  CLASSIFICATION: "Criterion met"
- MOLECULE: "COc1cccc2c1CCCC2CCCN1CCN(C2CCCCC2)CC1 (configuration not stated)"
  MEASURED_ON: "5-hydroxytryptamine receptor 1A (Rattus norvegicus, UniProt P19327)"
  CLASSIFICATION: "Criterion not met"
- MOLECULE: "COc1cccc2c1CCCC2CCCNCCC1CCCc2ccccc21 (configuration not stated)"
  MEASURED_ON: "5-hydroxytryptamine receptor 1A (Rattus norvegicus, UniProt P19327)"
  CLASSIFICATION: "Criterion not met"
- MOLECULE: "COc1cccc2c1CCCC2CCCN1CCNCC1 (configuration not stated)"
  MEASURED_ON: "5-hydroxytryptamine receptor 1A (Rattus norvegicus, UniProt P19327)"
  CLASSIFICATION: "Criterion not met"
- MOLECULE: "COc1ccc2c(c1)C(CCCN1CCNCC1)CCC2 (configuration not stated)"
  MEASURED_ON: "5-hydroxytryptamine receptor 1A (Rattus norvegicus, UniProt P19327)"
  CLASSIFICATION: "Criterion not met"
- MOLECULE: "c1ccc2c(c1)CCCC2CCCN1CCN(C2=NCCCC2)CC1 (configuration not stated)"
  MEASURED_ON: "5-hydroxytryptamine receptor 1A (Rattus norvegicus, UniProt P19327)"
  CLASSIFICATION: "Criterion not met"
- MOLECULE: "COc1cccc2c1CCCC2CCCNCCCc1ccccc1 (configuration not stated)"
  MEASURED_ON: "5-hydroxytryptamine receptor 1A (Rattus norvegicus, UniProt P19327)"
  CLASSIFICATION: "Criterion met"
